target desc: UniProtKB O00763
pIC50: −log10 of the molar value.
If the reported pIC50 equals or exceeds 6, assign YES. If not, assign NO.

Q: Decide: pIC50 of CCOc1ccc(C#Cc2ccc(C(C)C(=O)Nc3cncnc3)cc2)cc1 (centres unmarked) >= 6?
Ans: YES

Q: Entry CCNC(=O)C(C)c1ccc(C#Cc2ccc(OC3CCOCC3)cc2)cc1 (centres unmarked) : is its pIC50 no less than 6?
Ans: NO

Q: Does the reported pIC50 for CCNC(=O)C(C)c1ccc(C#Cc2ccc(OCCn3ccnc3)cc2)cc1 (centres unmarked) fall at or above the 6 mark?
Ans: NO

Q: Could you please find out whether CCNC(=O)C(C)c1ccc(C#Cc2ccc(OCCC3CC3)cc2)cc1 (centres unmarked) has pIC50 that meets 6 or exceeds it?
Ans: YES

Q: Could you tell me if the measured pIC50 of CCOc1ccc(C#Cc2ccc(C(C)C(=O)Nc3ccncn3)cc2)cc1 (centres unmarked) reaches 6 or more?
Ans: YES

Q: Given the entry CCNC(=O)C(C)c1ccc(C#Cc2cncc(OC)c2)cc1 (centres unmarked) , answer whether its pIC50 meets or surpasses 6.
Ans: NO

Q: # check: pIC50 of CCCCOc1cc(C#Cc2ccc(C(C)C(=O)NCC)cc2)ccn1 (centres unmarked) is greater than or equal to 6
Ans: YES

Q: Does CCOc1ccc(C#Cc2ccc(C(C)C(=O)NC(C)(C)C#N)cc2)cc1 (centres unmarked) have a reported pIC50 of at least 6?
Ans: NO

Q: Is reported pIC50 greater than or equal to 6 here: CCNC(=O)C(C)c1ccc(C#Cc2ccc(SC)cc2)cc1 (centres unmarked)
Ans: YES

Q: I'd appreciate it if you could say whether CCNC(=O)C(C)c1ccc(C#Cc2cnc(OC)nc2OC)cc1 (centres unmarked) has pIC50 at least equal to 6.
Ans: NO

Q: Determine whether this compound has pIC50 no lower than 6: CCOc1ccc(C#Cc2ccc(C(C)C(=O)Nc3cccc(OC)n3)cc2)cc1 (centres unmarked)
Ans: YES

Q: // inclusive: pIC50 at least 6? input: CCNC(=O)C(C)c1ccc(C#Cc2cnc(NCc3ccccc3)nc2)cc1 (centres unmarked)
Ans: YES

Q: Assess whether reported pIC50 for CCNC(=O)C(C)c1ccc(C#Cc2cnc(OCCF)nc2)cc1 (centres unmarked) sits at 6 or higher.
Ans: NO

Q: Assess whether reported pIC50 for CCNC(=O)C(C)c1ccc(C#Cc2ccnc(OCC)c2)cc1 (centres unmarked) sits at 6 or higher.
Ans: YES

Q: State whether the measured pIC50 reaches 6, counting equality as reaching it, for CCCCOc1ccc(C#Cc2ccc(C(C)C(=O)NCC)cc2)nn1 (centres unmarked)
Ans: NO

----------
target desc: human ACC2 (Homo sapiens)
Sequence (O00763 129-2458 limits assumed): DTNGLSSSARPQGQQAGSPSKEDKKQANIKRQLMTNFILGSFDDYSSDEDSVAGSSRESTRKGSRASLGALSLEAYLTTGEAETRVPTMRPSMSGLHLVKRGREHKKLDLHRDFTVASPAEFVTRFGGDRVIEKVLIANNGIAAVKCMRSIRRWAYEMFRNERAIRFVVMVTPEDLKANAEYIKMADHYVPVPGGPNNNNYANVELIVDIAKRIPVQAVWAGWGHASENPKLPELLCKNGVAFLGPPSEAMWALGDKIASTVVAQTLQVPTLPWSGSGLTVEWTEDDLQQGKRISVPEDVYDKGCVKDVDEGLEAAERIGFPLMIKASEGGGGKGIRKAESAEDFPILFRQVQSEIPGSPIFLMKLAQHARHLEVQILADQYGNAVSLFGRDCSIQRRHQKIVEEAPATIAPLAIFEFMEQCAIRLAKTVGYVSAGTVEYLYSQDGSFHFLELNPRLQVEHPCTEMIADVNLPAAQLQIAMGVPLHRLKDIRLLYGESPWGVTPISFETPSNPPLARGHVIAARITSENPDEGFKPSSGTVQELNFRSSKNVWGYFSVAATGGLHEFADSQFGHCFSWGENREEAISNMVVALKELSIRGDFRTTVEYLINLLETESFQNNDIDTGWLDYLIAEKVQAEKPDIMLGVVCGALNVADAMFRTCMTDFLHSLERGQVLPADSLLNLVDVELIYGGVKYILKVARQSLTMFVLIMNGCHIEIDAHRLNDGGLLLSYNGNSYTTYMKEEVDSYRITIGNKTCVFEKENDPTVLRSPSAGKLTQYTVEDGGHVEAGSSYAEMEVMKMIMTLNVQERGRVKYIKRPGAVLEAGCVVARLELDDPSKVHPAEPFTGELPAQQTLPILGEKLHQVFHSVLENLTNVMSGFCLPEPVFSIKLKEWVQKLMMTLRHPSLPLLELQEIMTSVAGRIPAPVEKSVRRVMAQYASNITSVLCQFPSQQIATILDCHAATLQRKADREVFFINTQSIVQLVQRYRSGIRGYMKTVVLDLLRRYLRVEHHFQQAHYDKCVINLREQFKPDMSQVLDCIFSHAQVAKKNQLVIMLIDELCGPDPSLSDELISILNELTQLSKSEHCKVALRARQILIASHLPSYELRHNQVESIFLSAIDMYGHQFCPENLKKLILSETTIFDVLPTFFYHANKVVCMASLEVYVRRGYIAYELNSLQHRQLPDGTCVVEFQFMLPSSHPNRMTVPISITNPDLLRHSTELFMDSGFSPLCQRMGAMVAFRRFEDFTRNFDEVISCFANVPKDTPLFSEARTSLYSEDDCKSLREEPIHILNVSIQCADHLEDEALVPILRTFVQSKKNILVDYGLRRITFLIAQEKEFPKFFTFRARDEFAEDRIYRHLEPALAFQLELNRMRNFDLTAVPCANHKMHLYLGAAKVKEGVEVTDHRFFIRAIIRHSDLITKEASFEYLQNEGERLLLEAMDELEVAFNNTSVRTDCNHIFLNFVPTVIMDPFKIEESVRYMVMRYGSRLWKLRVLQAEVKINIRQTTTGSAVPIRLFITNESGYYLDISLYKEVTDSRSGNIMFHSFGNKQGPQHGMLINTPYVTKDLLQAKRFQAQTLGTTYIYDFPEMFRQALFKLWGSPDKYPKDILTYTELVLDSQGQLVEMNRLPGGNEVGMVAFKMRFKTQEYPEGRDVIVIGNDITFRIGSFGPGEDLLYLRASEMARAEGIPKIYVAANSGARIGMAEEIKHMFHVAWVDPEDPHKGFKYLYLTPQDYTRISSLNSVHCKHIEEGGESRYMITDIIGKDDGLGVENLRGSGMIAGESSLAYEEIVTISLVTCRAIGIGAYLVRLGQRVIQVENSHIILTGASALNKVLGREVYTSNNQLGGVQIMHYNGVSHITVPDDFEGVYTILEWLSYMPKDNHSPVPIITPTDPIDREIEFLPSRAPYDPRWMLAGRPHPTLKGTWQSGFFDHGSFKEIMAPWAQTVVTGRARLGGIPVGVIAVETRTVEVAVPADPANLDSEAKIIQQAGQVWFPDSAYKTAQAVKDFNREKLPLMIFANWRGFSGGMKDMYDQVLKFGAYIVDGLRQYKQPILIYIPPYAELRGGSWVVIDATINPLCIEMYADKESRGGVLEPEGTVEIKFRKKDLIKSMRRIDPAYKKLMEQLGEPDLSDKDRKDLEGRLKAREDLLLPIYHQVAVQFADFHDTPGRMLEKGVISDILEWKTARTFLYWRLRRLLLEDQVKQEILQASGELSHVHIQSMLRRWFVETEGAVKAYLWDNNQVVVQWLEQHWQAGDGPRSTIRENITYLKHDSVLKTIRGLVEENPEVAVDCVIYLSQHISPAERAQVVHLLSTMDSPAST
endpoint: pIC50
Just the number, please; pIC50 means minus log10 of the concentration in mol/L.

Q: Please give measured pIC50 of the following entry: CCOc1ccc(C#Cc2ccc(C(C)C(=O)Nc3ccn[nH]3)cc2)cc1 (stereo not shown)
Ans: 5.08

Q: For the compound CCOc1ccc(C#Cc2ccc(CC(=O)NC3CC3)cc2)cc1 , report pIC50.
Ans: 6.00

Q: Supply measured pIC50 of CCNC(=O)C(C)c1ccc(C#Cc2ccc(OCc3cnco3)cc2)cc1 (stereo not shown) in your reply.
Ans: 6.27

Q: Consider the compound CCNC(=O)C(C)c1ccc(C#Cc2cnc(N3CCC3)nc2)cc1 (stereo not shown) . State its measured pIC50.
Ans: 5.43

Q: Supply pIC50 value. Item: CCNC(=O)C(C)c1ccc(C#Cc2ccc(OCC3(C)COC3)cc2)cc1 (stereo not shown)
Ans: 5.57

Q: Specify reported pIC50 for the compound shown: CCOc1ccc(C#Cc2ccc(CCC(=O)NC)cc2)cc1
Ans: 5.37

Q: Supply recorded pIC50 for CCOc1ccc(C#Cc2ccc(C(C)C(=O)Nc3ncccn3)cc2)cc1 (stereo not shown) here.
Ans: 6.54

Q: Quick one: give measured pIC50 for CCOc1ccc(C#Cc2ccc(C(C)C(=O)NC3CC3)cc2)cc1 (stereo not shown)
Ans: 6.92

Q: Read the entry CCNC(=O)C(C)c1ccc(C#Cc2ccc(OC(F)F)cc2)cc1 (stereo not shown) and write its reported pIC50.
Ans: 5.37

Q: Return the recorded pIC50 value; entry: CCNC(=O)C(C)c1ccc(C#Cc2ccc(OCc3cncs3)cc2)cc1 (stereo not shown)
Ans: 5.43

Q: Input CCNC(=O)C(C)c1ccc(C#Cc2ccc(OC3CCC3)cc2)cc1 (stereo not shown) , output reported pIC50.
Ans: 6.96

Q: Consider the compound CCOc1ccc(C#Cc2ccc(CC(C)C(=O)NC3CC3)cc2)cc1 (stereo not shown) . State its measured pIC50.
Ans: 6.14

Q: Could you please provide reported pIC50 for CCNC(=O)C(C)c1ccc(C#Cc2cc(OCC)ncn2)cc1 (stereo not shown) ? Thanks!
Ans: 5.70

Q: Return pIC50 (reported value) for this compound: CCOc1ccc(C#Cc2ccc(C(C)C(=O)Nc3ccncc3)cc2)cc1 (stereo not shown)
Ans: 6.40

Q: Tell me its pIC50 given CCOc1ccc(C#Cc2ccc(C(C)C(=O)NCC#N)cc2)cc1 (stereo not shown) as the entry.
Ans: 6.18

Q: Complete the entry with pIC50 for CCCOc1ccc(C#Cc2ccc(C(C)C(=O)NCC)cc2)c(Cl)c1 (stereo not shown)
Ans: 6.85

Q: Given the compound CCOc1ccc(C#Cc2ccc(C(C)C(=O)NCC(N)=O)cc2)cc1 (stereo not shown) , write its reported pIC50.
Ans: 6.28

Q: State, in one line, measured pIC50 of CCOc1ccc(C#Cc2ccc(C(C)C(=O)NC(C)C)cc2)cc1 (stereo not shown)
Ans: 4.88

Q: Please look at this compound and report its pIC50: CCNC(=O)C(C)c1ccc(C#Cc2ccc(CNc3ccccn3)cc2)cc1 (stereo not shown)
Ans: 5.82
